Reported BAF3-FGFR4 pIC50 by item:
system.tested: Ba/F3-FGFR4-transfected cells (Homo sapiens)
Sequence (P22455 whole entry, change not shown): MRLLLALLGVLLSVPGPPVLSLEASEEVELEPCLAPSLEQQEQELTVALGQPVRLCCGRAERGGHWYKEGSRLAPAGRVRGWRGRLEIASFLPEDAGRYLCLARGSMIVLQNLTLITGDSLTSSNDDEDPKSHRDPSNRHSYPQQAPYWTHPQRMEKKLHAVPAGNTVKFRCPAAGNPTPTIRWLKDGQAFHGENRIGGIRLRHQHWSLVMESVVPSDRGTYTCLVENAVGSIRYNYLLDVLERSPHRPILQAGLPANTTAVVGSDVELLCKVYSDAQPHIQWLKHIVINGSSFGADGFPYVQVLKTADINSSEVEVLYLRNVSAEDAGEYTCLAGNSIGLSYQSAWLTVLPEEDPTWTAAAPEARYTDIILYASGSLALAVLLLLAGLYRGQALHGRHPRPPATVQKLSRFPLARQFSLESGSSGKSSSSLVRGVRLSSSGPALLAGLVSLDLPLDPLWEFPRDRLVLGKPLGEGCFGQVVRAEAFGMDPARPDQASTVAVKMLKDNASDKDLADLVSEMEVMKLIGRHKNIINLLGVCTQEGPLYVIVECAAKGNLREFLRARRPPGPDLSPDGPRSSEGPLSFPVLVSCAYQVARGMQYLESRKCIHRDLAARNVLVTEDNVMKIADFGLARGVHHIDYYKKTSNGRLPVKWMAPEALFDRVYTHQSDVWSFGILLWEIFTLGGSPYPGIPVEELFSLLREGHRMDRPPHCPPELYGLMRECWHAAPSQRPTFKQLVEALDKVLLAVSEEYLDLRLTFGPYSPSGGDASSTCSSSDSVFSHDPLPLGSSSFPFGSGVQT
test.details: Ba/F3-FGFR4 cellular proliferation assay, Alamar Blue
Type: cell-based
Answer field: number only, no words.

molecule: COc1cc(OC)c(F)c(N(Cc2nccn2CCO)c2ccc3ncc(-c4cnn(C)c4)nc3n2)c1 [Compound 145]
BAF3-FGFR4 pIC50: 6.61

For reference, reported BAF3-FGFR4 pIC50 for COc1cc(OC)c(F)c(N(c2ccc3ncc(-c4cnn(C)c4)nc3n2)C(C)c2ncc[nH]2)c1 (stereo not shown) [Compound 287] stands at 8.08

The molecule listed as COc1cc(OC)c(F)c(N(CCN(C2COC2)C2COC2)c2ccc3ncc(-c4cnn(C)c4)nc3n2)c1F (single isomer, unassigned) [Compound 163] shows BAF3-FGFR4 pIC50 equal to 7.32

// provenance: patent US9309242B2
